B1: Probable E3 ubiquitin-protein ligase MID2, residues 191 to 235; numbered along this chain, Q9UJV3 (parent)
chain: RGITCLDHENEKVNMYCVSDDQLICALCKLVGRHRDHQVASLNDR

# Variants of: B1
# experimental.protocol: abundance fitness (aPCA) (normalised: wild type 0, dead -1); higher = more abundant; growth selection in yeast, the domain comes from the species named
# recorded.conditions: Homo sapiens
Recorded abundance fitness values for a group of variants are listed next.
experimental.readout: abundance fitness

>>> test_value("N14W")
-0.482
>>> test_value("R33N")
-0.127
>>> test_value("D20K")
-0.357
>>> test_value("D20T")
-0.706
>>> test_value("C25V")
-1.03
>>> test_value("R1G")
-0.04
>>> test_value("R33W")
-0.39
>>> test_value("E11S")
-0.236
>>> test_value("S19T")
0.049
>>> test_value("T4S")
-0.105
>>> test_value("N43K")
0.164
>>> test_value("H37Q")
-0.365
>>> test_value("R33E")
-0.022
>>> test_value("Y16A")
0.077
>>> test_value("S19K")
-0.049
>>> test_value("D44Y")
-0.285
>>> test_value("L27N")
0.311
>>> test_value("A26F")
-0.277
>>> test_value("M15L")
0.003
>>> test_value("L42K")
-0.054
>>> test_value("R45G")
0.15
>>> test_value("D7Y")
-0.112
